# Target or system: Somatostatin Receptor 2 (SSTR2) (Homo sapiens, UniProt P30874)
# Sequence (P30874 whole entry, species assumed): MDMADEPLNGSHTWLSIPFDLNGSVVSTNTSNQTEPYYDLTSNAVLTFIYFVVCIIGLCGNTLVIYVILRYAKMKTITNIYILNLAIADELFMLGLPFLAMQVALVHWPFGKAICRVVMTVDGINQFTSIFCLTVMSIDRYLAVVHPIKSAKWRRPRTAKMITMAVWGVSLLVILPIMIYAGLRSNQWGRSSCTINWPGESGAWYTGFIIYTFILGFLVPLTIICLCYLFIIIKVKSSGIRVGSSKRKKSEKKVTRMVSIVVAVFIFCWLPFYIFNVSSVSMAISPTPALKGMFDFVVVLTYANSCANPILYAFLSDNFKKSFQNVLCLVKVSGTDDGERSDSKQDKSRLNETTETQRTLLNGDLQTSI
# Test details: Biochemical Assay for Activation of Somatostatin Receptor 2 (SSTR2), Cisbio HTRF cAMP assay
# Condition details: average pEC50; HTRF cAMP assay in stably-transfected cell line expressing SSTR2; cells incubated with compounds for 1-2h
EC50 strictly under 6 nM means yes; at 6 nM or over means no.

These solved cases illustrate the format of a correct answer.
Molecule: Cc1cc(F)cc(-c2cnc3ccc4cc3c2N2CCC(CC2)NCC(N=[N+]=[N-])CCOc2c(C#N)cccc2-4)c1 (stereo not drawn) [Compound 94]
Class assignment: no
--
Molecule: NC1CCN(c2c(-c3nc4cc(F)c(F)cc4[nH]3)cnc3c2-c2cc(F)ccc2CO3)CC1 [Compound 121]
Class assignment: no
--
Molecule: Cc1cc(F)cc(-c2cncc(N3Cc4ccccc4C3)c2N2CCC(N)CC2)c1 [Compound 119]
Class assignment: yes
--
Molecule: CO[C@@H]1CN(c2c(-c3cc(F)cc(F)c3)cnc3c2nc(-c2cccc(C#N)c2O)n3C)CC[C@H]1N [Compound 23]
Class assignment: no
--
Molecule: N[C@@H]1CC[C@H](Oc2c(-c3cc(F)cc(F)c3)cnc3ccc(-c4cc(F)cc(F)c4)cc23)C1 [Compound 12]
Class assignment: no

QUERY: Check if EC50 falls below 6 nM for Cc1cc(F)cc(-c2cnc3ccc(-c4ccc5[nH]c(=O)[nH]c5c4)cc3c2O[C@@H]2CC[C@H](N)C2)c1 [Compound 8] .
RESULT: no

QUERY: Please indicate whether the reported EC50 of Cc1cc(F)cc(-c2cnc3ccc4cc3c2N2CCC(CC2)NCC[C@@H](O)COc2c(C#N)cccc2-4)c1 (single isomer, unassigned) [Compound 102] is strictly below 6 nM.
RESULT: no

QUERY: Given NC1CC(Oc2c(-c3cc(F)cc(F)c3)cnc3ccc(-c4cc(F)cc(F)c4)cc23)C1 (stereo not drawn) [Compound 17] , is recorded EC50 strictly lower than 6 nM?
RESULT: no

QUERY: Does the reported EC50 of N[C@@H]1CCN(c2c(-c3cc(F)cc(F)c3)cnc3c2C(=O)N(c2ccc(F)c(F)c2)CC3)C1 [Compound 113] stay below 6 nM?
RESULT: no

QUERY: Quick check: EC50 of C=CCOc1c(C#N)cccc1-c1ccc2ncc(-c3cc(F)cc(F)c3)c(N3CCC(N)CC3)c2c1 [Compound 142] under 6 nM?
RESULT: yes

QUERY: # check: EC50 < 6 nM for Cc1cc(F)cc(-c2cnc3ccc4cc3c2N2CCC(CC2)NCC[C@@H](N=[N+]=[N-])COc2c(C#N)cccc2-4)c1 (single isomer, unassigned) [Compound 96]
RESULT: yes

QUERY: Quick check: does NC1CCN(c2c(-c3cc(F)cc(F)c3)cnc3ccc(C4=CC=CN5CCNC(=O)C45O)cc23)CC1 (stereo not drawn) [Compound 158] have EC50 under 6 nM?
RESULT: no

QUERY: Here's an entry: COc1cc(F)cc(-c2cnc3ccc(-c4cc(F)cc(C(N)=O)c4)cc3c2O[C@@H]2CC[C@H](N)C2)c1 [Compound 5] . Is its EC50 below 6 nM?
RESULT: yes

QUERY: Does the reported EC50 of Cc1cc(F)cc(-c2cnc3ccc(-c4ccccc4C4NCCCN4)cc3c2N2CCC(=O)CC2)c1 [Compound 162] stay below 6 nM?
RESULT: no

QUERY: Regarding Cc1cc(F)cc(-c2cnc3ccc4cc3c2N2CCC(CC2)NCCCCOc2ccccc2-4)c1 [Compound 76] , kindly confirm whether its EC50 is beneath 6 nM.
RESULT: yes

The measurements presented in this section are drawn from patent US20260053794A1.
